I'd appreciate it if you could supply % of efficacy (protection) values for the items below.
System: Pyrenophora teres
Test: In vivo preventive test on Pyrenophora teres (net blotch on barley)
Settings: 500 ppm; barley plants sprayed 24 hours before contamination; grading 12 days after contamination vs control plants
Just the number please, in %, no unit attached.

Given the entry CCc1cnc2ccc(C3=NOC(C)(C(=O)NCc4cn(CC)nc4C)C3)cc2c1 (stereo not drawn) , report its measured % of efficacy (protection).
75

Given the entry CCOCCCNC(=O)C1(OC)CC(c2ccc3ncc(Br)cc3c2)=NO1 (stereo not drawn) , report its measured % of efficacy (protection).
71

Given the entry CC1(C(=O)NCc2ccc3c(c2)CCO3)CC(c2ccc3ncc(Br)cc3c2)=NO1 (stereo not drawn) , report its measured % of efficacy (protection).
86

Given the entry COC1C(c2ccc3ncc(Br)cc3c2)=NOC1(C)C(=O)NC(C)C (stereo not drawn) , report its measured % of efficacy (protection).
75

Given the entry C#Cc1cnc2ccc(C3=NOC(C)(C(=O)NC(C)c4ccccn4)C3)cc2c1 (stereo not drawn) , report its measured % of efficacy (protection).
71

Given the entry Cc1nn(C)c(C)c1CNC(=O)C1(C)CC(c2ccc3ncc(Br)cc3c2)=NO1 (stereo not drawn) , report its measured % of efficacy (protection).
86

Given the entry C#Cc1cnc2ccc(C3=NOC(CC)(C(=O)NCCCOCC)C3)cc2c1 (racemic) , report its measured % of efficacy (protection).
75

Given the entry C#Cc1cnc2ccc(C3=NOC(OC)(C(=O)NC(C)C)C3)cc2c1 (stereo not drawn) , report its measured % of efficacy (protection).
83

Given the entry CC(C)NC(=O)C1(C(F)(F)F)CC(c2ccc3ncc(Br)cc3c2)=NO1 (stereo not drawn) , report its measured % of efficacy (protection).
79
